Cited source: patent US9834556B2

Test: Solubility of 3 in 2-MeTHF/heptane mixtures
Assay type: physicochemical
Conditions: 2-MeTHF/heptane 1/0 (v/v), organic solvent or mixture; 2-MeTHF/heptane (v/v) 1/0, 25° C.
Property Name: solubility (mg/mL)
# number only, unit mg/mL dropped from output

Need solubility of "CC(C)(C)OC(=O)NC1(c2ccc(Nc3nc(-c4ccccc4)ccc3[N+](=O)[O-])cc2)CCC1" , thanks. 100

====

Assay: Solubility of 3 in 2-MeTHF/heptane mixtures
Format: physicochemical
Settings: 2-MeTHF/heptane 3/7 (v/v), organic solvent or mixture; 2-MeTHF/heptane (v/v) 3/7, 25° C.
Procedure: A series of experiments were performed to test the solubility of 3 in a mixture of 2-MeTHF and heptane.
Property Name: solubility (µg/mL)
# number only, unit µg/mL dropped from output

Need solubility of "CC(C)(C)OC(=O)NC1(c2ccc(Nc3nc(-c4ccccc4)ccc3[N+](=O)[O-])cc2)CCC1" , thanks. 1200

====

Assay: Solubility of 6 in extraction solvents
Format: physicochemical
Settings: organic solvent or mixture; Solvent 2-MeTHF
Property Name: solubility (mg/mL)
# number only, unit mg/mL dropped from output

Need solubility of "CC(C)(C)OC(=O)NC1(c2ccc(-n3c(-c4cccnc4N)nc4ccc(-c5ccccc5)nc43)cc2)CCC1" , thanks. 25

====

Test: Solubility of 3 in 2-MeTHF/heptane mixtures
Type: physicochemical
Settings: 2-MeTHF/heptane 7/3 (v/v), organic solvent or mixture; 2-MeTHF/heptane (v/v) 7/3, 25° C.
Property Name: solubility (mg/mL)
# number only, unit mg/mL dropped from output

Need solubility of CC(C)(C)OC(=O)NC1(c2ccc(Nc3nc(-c4ccccc4)ccc3[N+](=O)[O-])cc2)CCC1 [Compound 3] , thanks. 13

====

Assay: Solubility of 3 in 2-MeTHF/heptane mixtures
Assay type: physicochemical
Settings: 2-MeTHF/heptane 9/1 (v/v), organic solvent or mixture; 2-MeTHF/heptane (v/v) 9/1, 25° C.
Property Name: solubility (mg/mL)
# number only, unit mg/mL dropped from output

Need solubility of "CC(C)(C)OC(=O)NC1(c2ccc(Nc3nc(-c4ccccc4)ccc3[N+](=O)[O-])cc2)CCC1" , thanks. 32

====

Assay: Solubility of 6 in extraction solvents
Format: physicochemical
Conditions: organic solvent or mixture; Solvent EtOAc
Property Name: solubility (µg/mL)
# number only, unit µg/mL dropped from output

Need solubility of CC(C)(C)OC(=O)NC1(c2ccc(-n3c(-c4cccnc4N)nc4ccc(-c5ccccc5)nc43)cc2)CCC1 [Compound 6] , thanks. 6600

====

Assay: Solubility of 3 in HOAc, 2-MeTHF and THF
Type: physicochemical
Conditions: organic solvent or mixture; in THF
Property Name: solubility (mg/mL)
# number only, unit mg/mL dropped from output

Need solubility of CC(C)(C)OC(=O)NC1(c2ccc(Nc3nc(-c4ccccc4)ccc3[N+](=O)[O-])cc2)CCC1 [Compound 3] , thanks. 155

====

Test: Solubility of 3 in 2-MeTHF/heptane mixtures
Format: physicochemical
Conditions: 2-MeTHF/heptane 2/8 (v/v), organic solvent or mixture; 2-MeTHF/heptane (v/v) 2/8, 25° C.
Property Name: solubility (µg/mL)
# number only, unit µg/mL dropped from output

Need solubility of "CC(C)(C)OC(=O)NC1(c2ccc(Nc3nc(-c4ccccc4)ccc3[N+](=O)[O-])cc2)CCC1" , thanks. 300
